Where do the numbers come from? From ChEMBL document CHEMBL1131161.

Target sequence: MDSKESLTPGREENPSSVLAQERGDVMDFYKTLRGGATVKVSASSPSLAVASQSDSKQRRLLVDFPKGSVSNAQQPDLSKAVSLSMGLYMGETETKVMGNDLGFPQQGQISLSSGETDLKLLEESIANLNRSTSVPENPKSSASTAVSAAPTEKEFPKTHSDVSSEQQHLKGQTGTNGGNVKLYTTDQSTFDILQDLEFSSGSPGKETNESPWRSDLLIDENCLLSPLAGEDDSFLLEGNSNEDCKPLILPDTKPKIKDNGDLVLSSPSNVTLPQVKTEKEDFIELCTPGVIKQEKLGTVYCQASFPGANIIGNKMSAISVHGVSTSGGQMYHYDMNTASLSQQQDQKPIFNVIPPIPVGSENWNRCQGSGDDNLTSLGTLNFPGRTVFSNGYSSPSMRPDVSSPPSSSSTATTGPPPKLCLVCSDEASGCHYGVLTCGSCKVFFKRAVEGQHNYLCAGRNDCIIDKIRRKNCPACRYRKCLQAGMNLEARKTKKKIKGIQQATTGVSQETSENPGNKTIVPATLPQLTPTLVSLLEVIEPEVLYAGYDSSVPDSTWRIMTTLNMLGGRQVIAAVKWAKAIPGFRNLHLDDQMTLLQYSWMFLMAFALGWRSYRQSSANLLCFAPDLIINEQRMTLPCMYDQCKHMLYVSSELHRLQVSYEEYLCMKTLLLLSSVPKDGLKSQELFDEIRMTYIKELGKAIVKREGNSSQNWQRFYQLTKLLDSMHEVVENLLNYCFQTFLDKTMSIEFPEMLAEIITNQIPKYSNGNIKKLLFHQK
Ki listing for selected compounds.
Enter your answer as a number in nM; do not include the unit.

Compound Smiles | Ki / nM
CC1=CC(C)(C)Nc2ccc3c(c21)/C(=C/c1ccccc1C)Oc1ccccc1-3 | 564

I'd like to know its Ki. The compound in question is `CC1=CC(C)(C)Nc2ccc3c(c21)/C(=C/c1cc(F)ccc1F)Oc1ccccc1-3`
173

---

Read-out record for Glucocorticoid receptor (Homo sapiens, UniProt P04150): pIC50
# pIC50 = -log10(concentration in molar units)

// lookup pIC50 for CC(=O)O[C@]1(C(C)=O)CC[C@H]2[C@@H]3C[C@H](C)C4=CC(=O)CC[C@]4(C)[C@H]3CC[C@@]21C [MEDROXYPROGESTERONE ACETATE]
8.00

What does the data say about its pIC50? Entry: `CC1=CC(C)(C)Nc2ccc3c(c21)/C(=C/c1ccccc1)Oc1ccccc1-3`
6.13

What does the record list as pIC50 for `CC1=CC(C)(C)Nc2ccc3c(c21)/C(=C/c1cccc(F)c1)Oc1ccccc1-3` ?
6.34

---

# Lookup of reported EC50 keyed by entry
- Study System: Progesterone receptor (Homo sapiens, UniProt P06401)
- Sequence (P06401 whole entry): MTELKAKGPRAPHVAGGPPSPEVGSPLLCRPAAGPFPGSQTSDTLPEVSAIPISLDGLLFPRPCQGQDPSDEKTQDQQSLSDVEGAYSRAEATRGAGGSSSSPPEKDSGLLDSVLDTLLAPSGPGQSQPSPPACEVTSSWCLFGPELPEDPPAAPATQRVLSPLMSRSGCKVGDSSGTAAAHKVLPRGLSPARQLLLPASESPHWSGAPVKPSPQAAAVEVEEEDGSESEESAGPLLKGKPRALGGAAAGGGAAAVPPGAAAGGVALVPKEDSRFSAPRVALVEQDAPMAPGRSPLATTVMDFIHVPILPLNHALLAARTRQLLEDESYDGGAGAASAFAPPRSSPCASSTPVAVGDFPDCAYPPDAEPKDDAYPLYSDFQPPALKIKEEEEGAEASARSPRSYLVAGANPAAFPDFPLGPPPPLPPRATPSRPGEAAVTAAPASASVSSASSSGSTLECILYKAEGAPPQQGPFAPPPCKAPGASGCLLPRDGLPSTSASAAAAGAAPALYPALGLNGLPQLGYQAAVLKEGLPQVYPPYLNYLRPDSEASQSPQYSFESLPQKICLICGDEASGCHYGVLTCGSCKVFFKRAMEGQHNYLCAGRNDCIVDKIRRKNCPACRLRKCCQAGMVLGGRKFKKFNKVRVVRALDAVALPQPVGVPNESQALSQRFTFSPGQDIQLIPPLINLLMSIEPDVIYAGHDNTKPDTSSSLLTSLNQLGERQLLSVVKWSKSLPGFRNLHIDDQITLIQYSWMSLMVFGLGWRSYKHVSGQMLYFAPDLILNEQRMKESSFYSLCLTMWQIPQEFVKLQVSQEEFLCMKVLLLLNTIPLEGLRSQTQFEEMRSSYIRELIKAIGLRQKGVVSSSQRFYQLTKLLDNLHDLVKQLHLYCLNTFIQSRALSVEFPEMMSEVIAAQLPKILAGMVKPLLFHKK
- Experiment: Effective concentration (EC50) against human progesterone receptor expressed in CV-1 cell

Completed entries (count: 5):
Molecule | Study System | EC50
CC1=CC(C)(C)Nc2ccc3c(c21)/C(=C/c1cc(F)ccc1F)Oc1ccccc1-3 | Progesterone receptor (Homo sapiens, UniProt P06401) | 14.7 nM
CC1=CC(C)(C)Nc2ccc3c(c21)/C(=C/c1ccc(F)cc1)Oc1ccccc1-3 | Progesterone receptor (Homo sapiens, UniProt P06401) | 59.5 nM
CC1=CC(C)(C)Nc2ccc3c(c21)C(Cc1ccccc1)Oc1ccccc1-3 (stereo unspecified) | Progesterone receptor (Homo sapiens, UniProt P06401) | 16.8 nM
CC1=CC(C)(C)Nc2ccc3c(c21)/C(=C/c1ccc(C)cc1)Oc1ccccc1-3 | Progesterone receptor (Homo sapiens, UniProt P06401) | > 10000 nM
CC1=CC(C)(C)Nc2ccc3c(c21)/C(=C/c1cccc(Cl)c1)Oc1ccccc1-3 | Progesterone receptor (Homo sapiens, UniProt P06401) | 117 nM

State the recorded EC50 for this entry: `CC1=CC(C)(C)Nc2ccc3c(c21)/C(=C/c1ccccc1)Oc1ccccc1-3`
24.4 nM

For the molecule shown here, `CC1=CC(C)(C)Nc2ccc3c(c21)/C(=C/c1ccccc1Br)Oc1ccccc1-3` , give the reported EC50.
57.8 nM

Requested read-out: EC50. Entry: `CC1=CC(C)(C)Nc2ccc3c(c21)/C(=C/c1ccc(Br)cc1)Oc1ccccc1-3`
31.5 nM

So what's the measured EC50 for this one? `CC1=CC(C)(C)Nc2ccc3c(c21)/C(=C/c1ccccc1Cl)Oc1ccccc1-3`
57.8 nM

What measured EC50 goes with `CC1=CC(C)(C)Nc2ccc3c(c21)/C(=C/c1ccccc1C)Oc1ccccc1-3` ?
5.7 nM

# query: EC50 of entry `CC1=CC(C)(C)Nc2ccc3c(c21)/C(=C/c1cccc(Br)c1)Oc1ccccc1-3`
37 nM
